# Test system: EBNA-1 (Epstein-Barr virus nuclear antigen 1), Human herpesvirus 4
# measurement_protocol: EBNA-1 DNA-binding inhibitors, primary screen, biochemical, fluorescence polarization (AID 1950)
# condition_set: at 14.8 µM
Screen size: about 300,000 compounds; about 1,000 (0.33%) were called active. Rule as the data show it: active = inhibition above about 28%; inactive = the rest. Shown is part of a subset that was picked to be rich in actives.
Labels: t (active), f (inactive)

compound=Cc1cc(Nc2ccc(Br)cc2)nc2ccccc12 class=f
compound=COc1ccc(/C=C2\SC(=S)N(CCCC(=O)NC3CCCC3)C2=O)cc1OC class=f
compound=CC(=O)Nc1ccc(S(=O)(=O)NCC(=O)OCc2cc(=O)oc3ccc4ccccc4c23)cc1 class=t
compound=CC(C)NC(=O)NC(=O)COC(=O)c1ccc(NC(=O)CC#N)cc1 class=f
compound=CCC(=O)c1ccc(OC(=O)/C=C/c2cc(OC)c(OC)c(OC)c2)cc1 class=f
compound=Cc1ccc(O)c(/C=N/NC(=O)COc2ccc3c(C)cc(=O)oc3c2)c1 class=t
compound=Cc1ccc2nc(-c3ccc(NC(=O)CN(C)S(=O)(=O)c4ccccc4)cc3)sc2c1 class=t
compound=O=[N+]([O-])c1cc(S(=O)(=O)Nc2cccc(Cl)c2)ccc1N=Nc1c(O)[nH]c2ccccc12 class=f
compound=CCN(CC)S(=O)(=O)c1ccc(NC(=O)CN(c2cccc(F)c2)S(C)(=O)=O)cc1 class=f
compound=COC(=O)c1ccccc1NC(=O)CSc1nc2c(c(=O)[nH]1)CCC2 class=f
compound=CC(=O)N(C)c1ccc(NC(=O)C(F)(F)F)cc1 class=f
compound=CC(C)c1nnc(NC(=O)CCC(=O)N2CCN(c3cccc(Cl)c3)CC2)s1 class=f
compound=COc1ccc(C(=O)N[C@H](C(=O)NCc2ccccc2)C(C)C)cc1 class=f
compound=COc1cc(NS(=O)(=O)c2ccc(N=Cc3c(C)[nH]n(-c4ccccc4)c3=O)cc2)nc(OC)n1 class=f
compound=O=C(COc1ccc(/C=N/NC(=O)c2ccc(O)cc2)cc1)Nc1ccc([N+](=O)[O-])cc1 class=t
compound="CC(=O)N1CC(C)c2scc(C)[n+]2-c2ccccc21 (stereo not given)" class=f
compound=CN(C)[C@@H]1C(=O)C(C(N)=O)=C(O)[C@@]2(O)C(=O)C3=C(O)c4c(O)ccc(Cl)c4[C@@H](O)[C@H]3C[C@@H]12 class=f
compound=O=C(N/N=C/c1ccc(O)cc1)/C(=C/c1ccc([N+](=O)[O-])cc1)NC(=O)c1ccccc1 class=f
compound=Cc1cccc(N(CC(=O)Nc2ccc(-c3nc4ccc(C)cc4s3)cc2)S(C)(=O)=O)c1 class=t
compound=O=[N+]([O-])c1cccc(S(=O)(=O)N2CCCCCC2)c1 class=f
